systemName: UniProtKB P35414
Sequence (P35414 whole entry, looked up): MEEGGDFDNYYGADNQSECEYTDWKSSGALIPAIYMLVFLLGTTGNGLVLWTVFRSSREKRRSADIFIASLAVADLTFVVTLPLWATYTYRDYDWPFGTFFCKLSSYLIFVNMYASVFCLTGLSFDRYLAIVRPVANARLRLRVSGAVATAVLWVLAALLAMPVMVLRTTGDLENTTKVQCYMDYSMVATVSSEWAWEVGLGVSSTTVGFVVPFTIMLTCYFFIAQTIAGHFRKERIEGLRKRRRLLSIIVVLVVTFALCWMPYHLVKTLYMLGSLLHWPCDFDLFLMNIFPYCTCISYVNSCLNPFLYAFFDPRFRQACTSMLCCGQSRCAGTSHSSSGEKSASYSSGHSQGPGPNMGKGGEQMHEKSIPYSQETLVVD
assayExplanation: apelin receptor inhibitor analogs – cell-based, luminescence, SAR follow-up (AID 463109)
recordedConditions: CHO-K1 AGTRL-1 PathHunter beta-arrestin luminescence
Active and inactive are the calls of the source.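 Rule for the calls: active = mean IC50 below 10 µM; inactive = the rest.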
Bench note: report the call from t for active, f for inactive

{"compound": "COc1ccc(N=C2C(=O)Nc3ccc(C)c(Br)c32)cc1", "group": "f"}

Given CC(C(=O)OCC(=O)c1cccc([N+](=O)[O-])c1)N1C(=O)C2C3C=CC(C3)C2C1=O (configuration not stated) , state the outcome it received in this test.
f

Field: outcome | Entry: CCOC(=O)C1=NNC(C(=O)c2ccc(Cl)cc2)C1c1ccccc1 (configuration not stated)
f

Would you mind telling me which call this test gave CC(C)N1CCc2c(sc(NC(=O)c3cc(-c4cccs4)nc4ccccc34)c2C(N)=O)C1 ?
f

Could you kindly confirm the outcome this assay logged for O=C(CNC(=O)c1ccco1)NCC(=O)OCC(=O)c1ccc(Cl)c([N+](=O)[O-])c1 ?
t

# lookup: test call for Cn1c(=O)c(C(=S)NC(=O)C2CC2)c(N)n(Cc2ccccc2)c1=O
f

Short answer needed: outcome of this test for CCC1CCCCN1CC(=O)c1ccc(OC(F)F)cc1 (configuration not stated) ?
f

Called result for CCC[N+](CC#Cc1ccccc1)(CCC)CC(=O)c1ccc(Cl)cc1
f

How did this test come out for O=C(COC(=O)c1cnccn1)c1ccc(Cl)c([N+](=O)[O-])c1 ?
t

Tell me the recorded outcome of this test for Cc1ccc(C(=O)CNc2ccccc2)cc1 .
t

# outcome recorded in this test, key = Cc1ccc(OCC(=O)OCC(=O)c2cccc([N+](=O)[O-])c2)cc1C
f

Entry COC(=O)C1NN=C(C(=O)c2ccc(Cl)cc2)C1c1ccc(OC)cc1 (configuration not stated) : call = ?
f

In this assay, the call recorded for CCN(CC)CC(=O)c1ccc(-c2ccccc2)cc1 was what?
f

====

systemName: UniProt P35414
assayExplanation: apelin receptor inhibitor analogs – cell-based, luminescence, SAR follow-up (AID 463109)
recordedConditions: CHO-K1 AGTRL-1 PathHunter beta-arrestin luminescence
Calls of active or inactive are those of the source.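 How the source made its calls: active means mean IC50 below 10 µM; inactive means the rest.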
Select the matching outcome among Yes (active), No (inactive)

{"molecule": "Cc1ccc(C)c(NCC(=O)c2ccc(Cl)cc2)c1", "group": "Yes"}
{"molecule": "COc1ccc(C(=O)CNc2cccc(F)c2)cc1", "group": "No"}
{"molecule": "S=C1NCCc2ccccc2C1c1ccccc1Cl (configuration not stated)", "group": "No"}

What classification did O=C(Nc1nc2ccc(F)cc2s1)c1ccccn1 end up with in this test?
No

Query: recorded result category for NC(=O)c1ccccc1NCC(=O)c1ccc(Cl)cc1 in this test
Yes

Which outcome was assigned to Cc1ccc(N=C2C(=O)Nc3ccccc32)cc1 in this test?
No

Returns: the outcome recorded for CC(=O)c1ccc(N=C2C(=O)Nc3ccccc32)cc1 in this assay.
Yes

====

systemName: Apelin receptor (Homo sapiens)
assayExplanation: apelin receptor inhibitor analogs – cell-based, luminescence, SAR follow-up (AID 463109)
recordedConditions: CHO-K1 AGTRL-1 PathHunter beta-arrestin luminescence
Activity calls are given as the source filed them.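 The calls were made as follows: active = mean IC50 below 10 µM; inactive = the rest.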
Can you answer with just one of these options? active, inactive

Previously resolved entries follow.
{"recordSmiles": "CCOc1ccc(N=C2C(=O)Nc3ccc(C)c(Br)c32)cc1", "group": "active"}
{"recordSmiles": "O=c1c2cc(Br)ccc2[nH]c(=S)n1Cc1ccccn1", "group": "inactive"}
{"recordSmiles": "CC(C)Cc1nc2oc3c(Cl)ncnc3c2c2c1CCC2", "group": "inactive"}

Record request — test call for O=C(CNS(=O)(=O)c1ccccc1)OCC(=O)c1cccc([N+](=O)[O-])c1
inactive

How was O=C(COC(=O)c1ccncc1)c1ccc(Cl)c(Cl)c1 classified in this test?
inactive

# lookup: test call for O=C(COC(=O)c1cccnc1)c1ccc(Cl)c(Cl)c1
inactive

Which outcome was entered for the compound CNC(=O)c1nnsc1S(=O)(=O)c1ccc(Cl)cc1 in this test?
inactive

Please state the recorded outcome for this compound: O=C(CNc1cccc(Cl)c1)c1ccc(Br)cc1
inactive
